Biological target: FPR1 (Homo sapiens, UniProt P21462)
Sequence (P21462 whole entry, species assumed): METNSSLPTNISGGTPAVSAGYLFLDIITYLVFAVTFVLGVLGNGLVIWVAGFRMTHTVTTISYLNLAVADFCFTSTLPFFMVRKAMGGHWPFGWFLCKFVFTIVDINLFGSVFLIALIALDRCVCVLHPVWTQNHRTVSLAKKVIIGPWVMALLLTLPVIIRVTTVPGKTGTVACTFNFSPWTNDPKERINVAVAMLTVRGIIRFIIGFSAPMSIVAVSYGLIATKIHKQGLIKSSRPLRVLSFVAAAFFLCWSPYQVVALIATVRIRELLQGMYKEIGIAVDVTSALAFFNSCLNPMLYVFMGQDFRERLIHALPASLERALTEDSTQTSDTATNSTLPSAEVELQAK
Assay: Change in calcium activity by peptide, FPR1 activation effect
Conditions: calcium activity (Fura-2), graded per Table 3, read-out: EC50 for [Ca^2+] FPR1
pEC50: −log10 of the molar value. Peptide text beside a SMILES is read from it.
measure: pEC50

Worked cases, pEC50 given:
>>> result("CCCCCCCC(=O)N[C@@H](CCCNC(=N)N)C(=O)N[C@@H](CCSC)C(=O)N[C@@H](CCCNC(=N)N)C(=O)N[C@@H](Cc1ccc(O)cc1)C(=O)N[C@@H](Cc1ccc(O)cc1)C(=O)N[C@H](C(=O)N[C@H](CCSC)C(N)=O)C(C)C [Peptide 99] (HELM PEPTIDE1{[CCCCCCCC(=O)[*:2]].R.M.R.Y.Y.V.[dM].[am]}$$$$V2.0)")
"5.00 to 6.00"
>>> result("CSCC[C@H](NC(=O)[C@H](CCCCN)NC(C)=O)C(=O)N[C@@H](CCCCN)C(=O)N[C@@H](Cc1ccc(O)cc1)C(=O)N[C@@H](CCCCN)C(=O)N[C@H](C(=O)N[C@H](CCSC)C(N)=O)C(C)C [Peptide 10] (HELM PEPTIDE1{[ac].K.M.K.Y.K.V.[dM].[am]}$$$$V2.0)")
"< 5.00"
>>> result("CSCC[C@H](NC(=O)[C@H](Cc1c[nH]cn1)NC(C)=O)C(=O)N[C@@H](CCCNC(=N)N)C(=O)N[C@@H](Cc1ccc(O)cc1)C(=O)N[C@@H](CCCCN)C(=O)N1CCC[C@H]1C(=O)N[C@H](CCSC)C(N)=O [Peptide 59] (HELM PEPTIDE1{[ac].H.M.R.Y.K.P.[dM].[am]}$$$$V2.0)")
"< 5.00"
>>> result("CSCC[C@@H](NC(=O)[C@@H](NC(=O)[C@H](CCCNC(=N)N)NC(=O)[C@H](Cc1ccc(O)cc1)NC(=O)[C@H](CCCNC(=N)N)NC(=O)[C@H](Cc1c[nH]c2ccccc12)NC(=O)[C@@H](N)CCCNC(=N)N)C(C)C)C(N)=O [Peptide 29] (HELM PEPTIDE1{R.W.R.Y.R.V.[dM].[am]}$$$$V2.0)")
"< 5.00"
>>> result("CSCC[C@H](NC(=O)[C@H](Cc1c[nH]cn1)NC(C)=O)C(=O)N[C@@H](CCCCN)C(=O)N[C@@H](Cc1ccc(O)cc1)C(=O)N[C@@H](CCCCN)C(=O)N[C@H](C(=O)N[C@H](CCSC)C(N)=O)C(C)C [Peptide 22] (HELM PEPTIDE1{[ac].H.M.K.Y.K.V.[dM].[am]}$$$$V2.0)")
"< 5.00"
>>> result("CCCCCCCC(=O)N[C@@H](Cc1c[nH]cn1)C(=O)N[C@@H](CCSC)C(=O)N[C@@H](CCCCN)C(=O)N[C@@H](Cc1ccc(O)cc1)C(=O)N[C@@H](CCCCN)C(=O)N[C@H](C(=O)N[C@H](CCSC)C(N)=O)C(C)C [Peptide 24] (HELM PEPTIDE1{[CCCCCCCC(=O)[*:2]].H.M.K.Y.K.V.[dM].[am]}$$$$V2.0)")
"< 5.00"

Note: attention shifts to another entry.
Tested on FPR1 (Homo sapiens, UniProt P21462): CSCC[C@H](N)C(=O)N[C@@H](CCCNC(=N)N)C(=O)N[C@@H](Cc1ccc(O)cc1)C(=O)N[C@@H](Cc1c[nH]c2ccccc12)C(=O)N1CCC[C@H]1C(=O)N[C@H](CCSC)C(N)=O [Peptide 110] (HELM PEPTIDE1{M.R.Y.W.P.[dM].[am]}$$$$V2.0) . Observed pEC50: 6.00 to 7.00

Hello, the source for this data is patent US20250361268A1, in case you need it.
